Reported Population Healthy Nuclei (%) values for the following compounds.
# Test system: U2OS
# ASSAY REMARKS: Multiplex assay against U2OS
# Assay type: toxicity, cell-based
# MEASUREMENT CONTEXT: human, 48 h, 10 µM, compound concentration 10 uM, replicate 1
Non-standard residues stand in square brackets, D forms with d. Residues, ends and D or L forms follow the SMILES beside them.
ASSAY METRIC: Population Healthy Nuclei (%)

>>> numeric_result("O=C(NCCNCC(O)COc1ccc(O)cc1)N1CCOCC1.O=C(NCCNCC(O)COc1ccc(O)cc1)N1CCOCC1.O=C(O)/C=C/C(=O)O (stereo not given) [XAMOTEROL FUMARATE]")
68
>>> numeric_result("COC(c1ccccc1)(c1ccccc1)[C@H](Oc1nc(C)cc(C)n1)C(=O)O")
68
>>> numeric_result("Cc1cc(-c2ccc3c(c2)CC[C@H]3N2CC3(CCN(C(=O)Cc4cn5cc(C)sc5n4)CC3)C2)ncn1")
71
>>> numeric_result("CC(C)C[C@@H]1NC(=O)[C@@H](C(C)C)NC(=O)[C@@H]2CCCN2C(=O)[C@@H](CC(=O)O)NC(=O)[C@@H](Cc2c[nH]c3ccccc23)NC1=O [BQ-123] (cyclo(L[dW][dD]P[dV]))")
70
>>> numeric_result("CN1CCC(C(=O)c2cccc(NC(=O)c3c(F)cc(F)cc3F)n2)CC1")
69

Value source: ChEMBL document CHEMBL5058577
